# System: Cricetinae gen. sp.
# protocol.notes: Pregnancy-terminating activity in hamster when administered perorally
# Format: functional, Cricetulus griseus
# assay.setup: po
Below, each entry is listed alongside its reported ED50.
property.label: ED50 (mg/kg)

>>> print(df.to_string())
                          compound_structure       assayed_target  property_label  unit_descriptor  censoring_sign  result
 0  CCc1ccccc1-c1n[nH]c(-c2ccc(OC)c(OC)c2)n1  Cricetinae gen. sp.            ED50            mg/kg               >       5
 1           Cc1ccccc1-c1n[nH]c(-c2ccccc2)n1  Cricetinae gen. sp.            ED50            mg/kg               =      10
 2       CCc1ccccc1-c1n[nH]c(-c2cccc(F)c2)n1  Cricetinae gen. sp.            ED50            mg/kg               >       5
 3      CCOc1cccc(-c2n[nH]c(-c3ccccc3C)n2)c1  Cricetinae gen. sp.            ED50            mg/kg               =       5
 4   COc1cccc(-c2n[nH]c(-c3ccc(Cl)cc3C)n2)c1  Cricetinae gen. sp.            ED50            mg/kg               =       5
 5     CCOc1cccc(-c2n[nH]c(-c3ccccc3CC)n2)c1  Cricetinae gen. sp.            ED50            mg/kg               =       4
 6         COc1ccccc1-c1n[nH]c(-c2ccccc2C)n1  Cricetinae gen. sp.            ED50            mg/kg               >       5
 7      CCc1ccccc1-c1n[nH]c(-c2ccc(OC)cc2)n1  Cricetinae gen. sp.            ED50            mg/kg               =       5
 8          c1ccc(-c2n[nH]c(-c3ccccc3)n2)cc1  Cricetinae gen. sp.            ED50            mg/kg               =      10
 9    C=CCOc1cccc(-c2nc(-c3ccccc3C)n[nH]2)c1  Cricetinae gen. sp.            ED50            mg/kg               =       5
10          CCc1ccccc1-c1n[nH]c(-c2ccccc2)n1  Cricetinae gen. sp.            ED50            mg/kg               =       5
11      COc1cccc(-c2n[nH]c(-c3ccccc3CO)n2)c1  Cricetinae gen. sp.            ED50            mg/kg               =      15
12       Cc1ccccc1-c1n[nH]c(-c2cccc(Cl)c2)n1  Cricetinae gen. sp.            ED50            mg/kg               >      20
13  CCc1ccccc1-c1n[nH]c(-c2cccc(-c3ccccc3)c2)n1  Cricetinae gen. sp.            ED50            mg/kg               =      10
14      Cc1ccc(-c2n[nH]c(-c3ccccc3)n2)c(C)c1  Cricetinae gen. sp.            ED50            mg/kg               >       5
15   C=CCOc1cccc(-c2nc(-c3ccccc3CC)n[nH]2)c1  Cricetinae gen. sp.            ED50            mg/kg               =       5
16     COc1cccc(-c2n[nH]c(-c3ccccc3C=O)n2)c1  Cricetinae gen. sp.            ED50            mg/kg               =      10
17       Cc1cc(Cl)ccc1-c1n[nH]c(-c2ccccc2)n1  Cricetinae gen. sp.            ED50            mg/kg               =       4
18   CCc1ccccc1-c1n[nH]c(-c2ccc3c(c2)OCO3)n1  Cricetinae gen. sp.            ED50            mg/kg               =       3
19    CCCCc1ccccc1-c1n[nH]c(-c2cccc(OC)c2)n1  Cricetinae gen. sp.            ED50            mg/kg               =      10
20    COc1cccc(-c2n[nH]c(-c3ccc(C)cc3C)n2)c1  Cricetinae gen. sp.            ED50            mg/kg               =      10
21          Cc1ccccc1-c1n[nH]c(-c2ccccc2C)n1  Cricetinae gen. sp.            ED50            mg/kg               >      10
22   COc1cccc(-c2n[nH]c(-c3ccccc3C(C)C)n2)c1  Cricetinae gen. sp.            ED50            mg/kg               =      10
23  Cc1ccccc1-c1n[nH]c(-c2cccc(C(F)(F)F)c2)n1  Cricetinae gen. sp.            ED50            mg/kg               >      20
24       COc1cccc(-c2n[nH]c(-c3ccccc3C)n2)c1  Cricetinae gen. sp.            ED50            mg/kg               =       5
25   COc1cccc(-c2nc(-c3ccc(OC)cc3C)n[nH]2)c1  Cricetinae gen. sp.            ED50            mg/kg               >       5

* * *

The reader will find reported Solubility values listed item by item below.
# protocol.notes: Solubility in sesame oil containing 20% of benzyl benzoate
# Type: physicochemical
property.label: Solubility

>>> df
                  compound_structure         result
0   c1ccc(-c2nc3n(n2)Cc2ccccc2-3)cc1   ~ 30 mg ml-1
1    Cc1ccccc1-c1n[nH]c(-c2ccccc2)n1    > 100 mg/mL
2     c1ccc(-c2nc3c4ccccc4ccn3n2)cc1   ~ 10 mg ml-1
3  c1ccc(-c2nc3n(n2)CCc2ccccc2-3)cc1  ~ 100 mg ml-1

* * *

# Test system: Cricetinae gen. sp.
# protocol.notes: Pregnancy-terminating activity in hamster when administered sc
# Assay type: functional
# assay.setup: Cricetinae gen. sp., sc; read-out: ED50
Rule: measured ED50 below 0.6 mg/kg gets criterion met; anything equal to or greater than 0.6 mg/kg gets criterion not met.

In [3]: df
Out[3]:
                          compound_structure       assayed_target              label
 0   COc1cccc(-c2n[nH]c(-c3ccccc3C(C)C)n2)c1  Cricetinae gen. sp.  criterion not met
 1          c1ccc(-c2n[nH]c(-c3ccccc3)n2)cc1  Cricetinae gen. sp.  criterion not met
 2   COc1cccc(-c2n[nH]c(-c3cc(Cl)ccc3C)n2)c1  Cricetinae gen. sp.      criterion met
 3       CC(C)c1ccccc1-c1n[nH]c(-c2ccccc2)n1  Cricetinae gen. sp.  criterion not met
 4     COc1ccc(-c2n[nH]c(-c3ccccc3)n2)c(C)c1  Cricetinae gen. sp.  criterion not met
 5   C=CCOc1cccc(-c2nc(-c3ccccc3CC)n[nH]2)c1  Cricetinae gen. sp.      criterion met
 6      CCOc1cccc(-c2n[nH]c(-c3ccccc3C)n2)c1  Cricetinae gen. sp.      criterion met
 7       Cc1cc(Cl)ccc1-c1n[nH]c(-c2ccccc2)n1  Cricetinae gen. sp.      criterion met
 8         COc1ccccc1-c1n[nH]c(-c2ccccc2C)n1  Cricetinae gen. sp.      criterion met
 9          CCc1ccccc1-c1n[nH]c(-c2ccccc2)n1  Cricetinae gen. sp.      criterion met
10    COc1cccc(-c2n[nH]c(-c3cc(C)ccc3C)n2)c1  Cricetinae gen. sp.  criterion not met
11      CCc1ccccc1-c1n[nH]c(-c2ccc(OC)cc2)n1  Cricetinae gen. sp.      criterion met
12  CCc1ccccc1-c1n[nH]c(-c2ccc(OC)c(OC)c2)n1  Cricetinae gen. sp.      criterion met
13       Cc1ccccc1-c1n[nH]c(-c2ccc(Cl)cc2)n1  Cricetinae gen. sp.  criterion not met
14     COc1cccc(-c2n[nH]c(-c3cccc(C)c3)n2)c1  Cricetinae gen. sp.  criterion not met
15    C=CCOc1cccc(-c2nc(-c3ccccc3C)n[nH]2)c1  Cricetinae gen. sp.      criterion met
16  Cc1ccccc1-c1n[nH]c(-c2ccc(-c3ccccc3)cc2)n1  Cricetinae gen. sp.  criterion not met
17       CCc1ccccc1-c1n[nH]c(-c2cccc(F)c2)n1  Cricetinae gen. sp.      criterion met
18    Cc1ccccc1-c1nc(-c2ccc(N(C)C)cc2)n[nH]1  Cricetinae gen. sp.  criterion not met
19        Cc1ccccc1-c1n[nH]c(-c2ccc(F)cc2)n1  Cricetinae gen. sp.  criterion not met
20         Cc1cccc(-c2n[nH]c(-c3ccccc3)n2)c1  Cricetinae gen. sp.  criterion not met
21      COc1cccc(-c2n[nH]c(-c3ccccc3CO)n2)c1  Cricetinae gen. sp.      criterion met
22        CCCCc1ccccc1-c1n[nH]c(-c2ccccc2)n1  Cricetinae gen. sp.  criterion not met
23     COc1ccc(C)c(-c2n[nH]c(-c3ccccc3)n2)c1  Cricetinae gen. sp.  criterion not met
24       Cc1ccc(Cl)cc1-c1n[nH]c(-c2ccccc2)n1  Cricetinae gen. sp.  criterion not met
25    CCCCc1ccccc1-c1n[nH]c(-c2cccc(OC)c2)n1  Cricetinae gen. sp.  criterion not met
26    CCc1ccccc1-c1n[nH]c(-c2cccc(OC)c2OC)n1  Cricetinae gen. sp.  criterion not met
27          Cc1ccccc1-c1n[nH]c(-c2ccccc2C)n1  Cricetinae gen. sp.  criterion not met
28  CCc1ccccc1-c1n[nH]c(-c2cc(OC)cc(OC)c2)n1  Cricetinae gen. sp.  criterion not met
29   COc1cccc(-c2n[nH]c(-c3ccc(Cl)cc3C)n2)c1  Cricetinae gen. sp.      criterion met
30     CCOc1cccc(-c2n[nH]c(-c3ccccc3CC)n2)c1  Cricetinae gen. sp.      criterion met
31     COc1cccc(-c2n[nH]c(-c3ccc(C)cc3)n2)c1  Cricetinae gen. sp.  criterion not met
32         Cc1ccc(-c2n[nH]c(-c3ccccc3)n2)cc1  Cricetinae gen. sp.  criterion not met
33        Cc1cccc(-c2n[nH]c(-c3ccccc3C)n2)c1  Cricetinae gen. sp.  criterion not met
34  CCc1ccccc1-c1n[nH]c(-c2cccc(-c3ccccc3)c2)n1  Cricetinae gen. sp.  criterion not met
35         Cc1ccccc1-c1n[nH]c(-c2ccccc2Cl)n1  Cricetinae gen. sp.  criterion not met
36       COc1cccc(-c2n[nH]c(-c3ccccc3C)n2)c1  Cricetinae gen. sp.      criterion met
37            c1ccc(-c2nc3c4ccccc4ccn3n2)cc1  Cricetinae gen. sp.      criterion met
38      Cc1ccc(C)c(-c2n[nH]c(-c3ccccc3)n2)c1  Cricetinae gen. sp.  criterion not met
39      CCc1ccccc1-c1n[nH]c(-c2cccc(C)c2C)n1  Cricetinae gen. sp.  criterion not met
40   CCc1ccccc1-c1n[nH]c(-c2ccc3c(c2)OCO3)n1  Cricetinae gen. sp.      criterion met
